molecular target: human orexin-2 receptor (Homo sapiens); experiment: Intracellular calcium measurements (FLIPR), orexin receptor antagonistic activity, OX2; details: CHO cells expressing human orexin-2 receptor, 10 nM orexin-A as agonist
Binarize IC50 at 80 nM; below is fulfilled, at or above is not fulfilled.

Previously resolved entries follow.
Cc1cccc(-c2sc(C)nc2C(=O)N2C[C@H]3C[C@H]3[C@H]2CNC(=O)c2cccc3c2OCCN3C)c1 (relative stereo) [Example 179]: fulfilled
Cc1nc(C(=O)N2C[C@H]3C[C@H]3[C@H]2CNc2cnc3cc(F)c(F)cc3n2)c(-c2ccc(F)cc2)s1 (relative stereo) [Example 60]: fulfilled
Cc1cccc(-c2sc(C)nc2C(=O)N2C[C@H]3C[C@H]3[C@H]2CNC(=O)c2sc(C)nc2C)c1 (relative stereo) [Example 82]: fulfilled
Nc1nc(-c2ccccc2C(=O)N2C[C@H]3C[C@H]3[C@H]2CNC(=O)c2cccc3occc23)cs1 (relative stereo) [Example 30]: fulfilled
Cc1cccc(-c2sc(C)nc2C(=O)N2C[C@H]3C[C@H]3[C@H]2CNC(=O)c2cn(C)c3ccccc23)c1 (relative stereo) [Example 114]: not fulfilled

API: the following record is the query input.
Request: Is IC50 of Cc1cccc(-c2sc(N)nc2C(=O)N2C[C@H]3C[C@H]3[C@H]2CNC(=O)c2sc3nccn3c2C)c1 (relative stereo) [Example 274] strictly below 80 nM?
Response: not fulfilled

====

target: human orexin-1 receptor (Homo sapiens, UniProt O43613); assay: Intracellular calcium measurements (FLIPR), orexin receptor antagonistic activity, OX1; settings: CHO cells expressing human orexin-1 receptor, 10 nM orexin-A as agonist
Sequence (O43613 whole entry): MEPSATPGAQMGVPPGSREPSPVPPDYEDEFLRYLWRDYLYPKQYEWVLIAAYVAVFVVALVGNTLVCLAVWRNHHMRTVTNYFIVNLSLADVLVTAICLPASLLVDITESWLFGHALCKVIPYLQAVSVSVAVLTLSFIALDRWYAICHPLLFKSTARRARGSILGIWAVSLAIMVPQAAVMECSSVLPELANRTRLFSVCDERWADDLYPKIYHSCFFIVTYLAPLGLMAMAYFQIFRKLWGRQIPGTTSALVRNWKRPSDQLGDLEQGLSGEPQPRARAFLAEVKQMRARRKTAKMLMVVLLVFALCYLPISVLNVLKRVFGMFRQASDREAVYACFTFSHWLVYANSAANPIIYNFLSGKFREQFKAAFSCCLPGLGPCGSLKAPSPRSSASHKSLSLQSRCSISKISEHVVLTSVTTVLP
reported_property: IC50 (nM)
Numbers only, in nM.

Cc1nc(C(=O)N2C[C@H]3C[C@H]3[C@H]2CNC(=O)c2cnc3ccccn23)c(-c2cccc(Cl)c2)s1 (relative stereo) [Example 203]: 42

Quick one: give me IC50 for each item below, same order please.
1. Cc1ccc(C(=O)N2C[C@H]3C[C@H]3[C@H]2CNC(=O)c2cccc3c2OCCO3)c(C#CC2CC2)c1 (racemic) [Example 379]
2. Cc1cccc(-c2sc(N)nc2C(=O)N2C[C@H]3C[C@H]3[C@H]2CNC(=O)c2sc3nccn3c2C)c1 (relative stereo) [Example 274]

Response:
[373, 31]

====

target: human orexin-2 receptor (Homo sapiens, UniProt O43614); test: Intracellular calcium measurements (FLIPR), orexin receptor antagonistic activity, OX2; details: CHO cells expressing human orexin-2 receptor, 10 nM orexin-A as agonist
Binarize IC50 at 0.04 µM; below is criterion met, at or above is criterion not met.

Cc1nc(C(=O)N2C[C@H]3C[C@H]3[C@H]2CNC(=O)c2cnc3sccn23)c(-c2cccc(F)c2)s1 (relative stereo): criterion met

Request: Is IC50 of Cc1cccc(-c2sc(C)nc2C(=O)N2C[C@H]3C[C@H]3[C@H]2CNC(=O)c2cccc3c2OC(C)(C)C3)c1 (relative stereo) strictly below 0.04 µM?
Response: criterion not met

Request: Now this one: Cc1ccc(C(=O)N2C[C@H]3C[C@H]3[C@H]2CNC(=O)c2cccc3c2OCCO3)c(C#CC2CC2)c1 (racemic)
Response: criterion not met

Request: Now this one: Cc1cccc(-c2sc(C)nc2C(=O)N2C[C@H]3C[C@H]3[C@H]2CNC(=O)c2cccc(C)c2Cl)c1 (relative stereo)
Response: criterion met

Request: Now this one: Cc1cccc(-c2sc(C)nc2C(=O)N2C[C@H]3C[C@H]3[C@H]2CNC(=O)c2cccc3c2NC(=O)CO3)c1 (relative stereo)
Response: criterion not met

====

Target: human orexin-2 receptor (Homo sapiens, UniProt O43614)
Construct: expressed in transfected cells; host or cells: CHO (Chinese hamster ovary) cells, grown under G418 selection
Sequence (O43614 1-444): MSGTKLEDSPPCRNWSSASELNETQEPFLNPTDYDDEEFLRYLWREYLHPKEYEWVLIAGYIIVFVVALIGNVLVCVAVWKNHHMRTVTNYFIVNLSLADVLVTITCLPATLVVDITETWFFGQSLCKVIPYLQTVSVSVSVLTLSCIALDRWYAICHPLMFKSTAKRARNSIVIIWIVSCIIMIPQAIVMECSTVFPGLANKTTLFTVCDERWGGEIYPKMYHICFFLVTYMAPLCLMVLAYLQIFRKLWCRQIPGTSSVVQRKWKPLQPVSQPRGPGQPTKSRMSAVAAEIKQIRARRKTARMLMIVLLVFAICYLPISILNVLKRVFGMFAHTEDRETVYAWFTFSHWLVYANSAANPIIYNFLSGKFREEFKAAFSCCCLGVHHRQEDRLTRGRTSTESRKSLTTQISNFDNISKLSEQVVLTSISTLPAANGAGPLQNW
Assay: Intracellular calcium measurements (FLIPR), orexin receptor antagonistic activity, OX2
Type: cell-based
Details: CHO cells expressing human orexin-2 receptor, 10 nM orexin-A as agonist
reported_property: IC50 (nM)
Numbers only, in nM.

Solved cases below.
Cc1csc(-c2c(C)cccc2C(=O)N2C[C@H]3C[C@H]3[C@H]2CNC(=O)c2cccc3c2OCCO3)c1: 158
Cc1nc(C(=O)N2C[C@H]3C[C@H]3[C@H]2CNC(=O)c2cccc3c2OCCO3)c(-c2cccc(F)c2)s1 (relative stereo): 14

Could you now consider this next compound?
Request: Consider the compound shown here: Cc1nc(C(=O)N2C[C@H]3C[C@H]3[C@H]2CNC(=O)c2cccc3c2OCO3)c(-c2cccc(F)c2)s1 (relative stereo) What is its recorded IC50?
Response: 59

Data origin: patent US20100016401A1
